This collection of values is drawn from ChEMBL document CHEMBL5724914.

measurement_protocol: The drug is tested on Z-002 corresponding to rabbit gut metagenome with ENA study accession number: PRJEB37062 and ENA sample accession number: ERS12561802 for biotransformation under anaerobic condition. The drug concentrations were measured over 9 timepoints collected between 0 and 24 hours of incubation by liquid-chromatography-coupled mass spectrometry (LC–MS); note: call rule not given here
protocol_conditions: 2 µM
result_type: Bacterial Biotransformation

Incoming: Would you kindly share the measured Bacterial Biotransformation for Nc1nnc(-c2cccc(Cl)c2Cl)c(N)n1 ?
Outgoing: Compound NOT metabolized

Incoming: Would you kindly share the measured Bacterial Biotransformation for CC(N)C12CC3CC(CC(C3)C1)C2 (stereo unspecified) ?
Outgoing: Compound NOT metabolized

Incoming: Would you kindly share the measured Bacterial Biotransformation for CC(NC(C)(C)C)C(=O)c1cccc(Cl)c1 (stereo unspecified) ?
Outgoing: Compound NOT metabolized

Incoming: Would you kindly share the measured Bacterial Biotransformation for CC(C)(C)NC[C@H](O)COc1nsnc1N1CCOCC1.O=C(O)/C=C\C(=O)O [TIMOLOL MALEATE] ?
Outgoing: Compound NOT metabolized

Incoming: Would you kindly share the measured Bacterial Biotransformation for Nc1nc(N)nc(-c2cc(Cl)ccc2Cl)n1.O=C(O)/C=C\C(=O)O [IRSOGLADINE MALEATE] ?
Outgoing: Compound NOT metabolized

Incoming: Would you kindly share the measured Bacterial Biotransformation for COC1=C(OC)C(=O)C(CCCCCCCCCCO)=C(C)C1=O ?
Outgoing: Compound metabolized

Incoming: Would you kindly share the measured Bacterial Biotransformation for CN(C)CCOC(C)(c1ccccc1)c1ccccn1.O=C(O)CCC(=O)O (stereo unspecified) [DOXYLAMINE SUCCINATE] ?
Outgoing: Compound NOT metabolized

Incoming: Would you kindly share the measured Bacterial Biotransformation for COc1ccc([C@@H]2Sc3ccccc3N(CCN(C)C)C(=O)[C@@H]2OC(C)=O)cc1 ?
Outgoing: Compound metabolized

Incoming: Would you kindly share the measured Bacterial Biotransformation for COc1ccc2c(c1)c(CC(=O)O)c(C)n2C(=O)c1ccc(Cl)cc1 ?
Outgoing: Compound NOT metabolized

Incoming: Would you kindly share the measured Bacterial Biotransformation for C=C[C@H]1CN2CC[C@H]1C[C@H]2[C@H](O)c1ccnc2ccc(OC)cc12.C=C[C@H]1CN2CC[C@H]1C[C@H]2[C@H](O)c1ccnc2ccc(OC)cc12.O.O.O=S(=O)(O)O [QUININE SULFATE] ?
Outgoing: Compound NOT metabolized

More entries:
Incoming: Would you kindly share the measured Bacterial Biotransformation for CCCN1C[C@H](CSC)C[C@@H]2c3cccc4[nH]cc(c34)C[C@H]21.CS(=O)(=O)O [PERGOLIDE MESYLATE] ?
Outgoing: Compound NOT metabolized

Incoming: Would you kindly share the measured Bacterial Biotransformation for CCCN(CCC)CCc1cccc2c1CC(=O)N2 ?
Outgoing: Compound metabolized

Incoming: Would you kindly share the measured Bacterial Biotransformation for CN1CCC[C@@H]1CCO[C@](C)(c1ccccc1)c1ccc(Cl)cc1.O=C(O)/C=C/C(=O)O [CLEMASTINE FUMARATE] ?
Outgoing: Compound NOT metabolized

Incoming: Would you kindly share the measured Bacterial Biotransformation for CC(C)(C)NC(=O)[C@H]1CC[C@H]2[C@@H]3CC[C@H]4NC(=O)C=C[C@]4(C)[C@H]3CC[C@]12C [FINASTERIDE] ?
Outgoing: Compound metabolized

Incoming: Would you kindly share the measured Bacterial Biotransformation for CN(C/C=C/C#CC(C)(C)C)Cc1cccc2ccccc12 ?
Outgoing: Compound NOT metabolized

* * *

measurement_protocol: The drug is tested on WLS-086 corresponding to human gut metagenome with ENA study accession number: PRJEB37062 and ENA sample accession number: ERS12561752 for biotransformation under anaerobic condition. The drug concentrations were measured over 9 timepoints collected between 0 and 24 hours of incubation by liquid-chromatography-coupled mass spectrometry (LC–MS)
protocol_conditions: 2 µM
result_type: Bacterial Biotransformation

Sample records with Bacterial Biotransformation:
Incoming: Would you kindly share the measured Bacterial Biotransformation for N[C@@H](Cc1ccc(N(CCCl)CCCl)cc1)C(=O)O ?
Outgoing: Compound metabolized

Incoming: Would you kindly share the measured Bacterial Biotransformation for Cc1ccccc1C(OCCN(C)C)c1ccccc1.O=C(O)CC(O)(CC(=O)O)C(=O)O (stereo not given) [ORPHENADRINE CITRATE] ?
Outgoing: Compound NOT metabolized

Incoming: Would you kindly share the measured Bacterial Biotransformation for COc1ccc(CN2CCNCC2)c(OC)c1OC.Cl.Cl [TRIMETAZIDINE DIHYDROCHLORIDE] ?
Outgoing: Compound NOT metabolized

Incoming: Would you kindly share the measured Bacterial Biotransformation for CC(=O)Nc1ccc(OC(C)=O)cc1 [DIACETAMATE] ?
Outgoing: Compound metabolized

Incoming: Would you kindly share the measured Bacterial Biotransformation for CN1CCC(=C2c3ccccc3CC(=O)c3sccc32)CC1.O=C(O)/C=C/C(=O)O [KETOTIFEN FUMARATE] ?
Outgoing: Compound metabolized

More entries:
Incoming: Would you kindly share the measured Bacterial Biotransformation for CCc1oc2ccccc2c1C(=O)c1cc(Br)c(O)c(Br)c1 [BENZBROMARONE] ?
Outgoing: Compound metabolized

Incoming: Would you kindly share the measured Bacterial Biotransformation for CCOC(=O)[C@H](CCc1ccccc1)N[C@@H](C)C(=O)N1CCC[C@H]1C(=O)O.O=C(O)/C=C\C(=O)O [ENALAPRIL MALEATE] ?
Outgoing: Compound NOT metabolized

* * *

protocol_conditions: human gut metagenome, 24 h, 2 µM
result_type: Bacterial Biotransformation

Sample records with Bacterial Biotransformation:
Incoming: Would you kindly share the measured Bacterial Biotransformation for CC(=O)OCC(=O)NCCCOc1cccc(CN2CCCCC2)c1 [ROXATIDINE ACETATE] ?
Outgoing: Compound metabolized

Incoming: Would you kindly share the measured Bacterial Biotransformation for CCCCC(=O)O[C@]1(C(=O)CO)[C@@H](C)C[C@H]2[C@@H]3CCC4=CC(=O)C=C[C@]4(C)[C@@]3(F)[C@@H](O)C[C@@]21C [BETAMETHASONE VALERATE] ?
Outgoing: Compound metabolized

Incoming: Would you kindly share the measured Bacterial Biotransformation for O=P1(N(CCCl)CCCl)NCCCO1 (centres undefined) [CYCLOPHOSPHAMIDE ANHYDROUS] ?
Outgoing: Compound metabolized

Incoming: Would you kindly share the measured Bacterial Biotransformation for CCOc1ccccc1OCCN[C@H](C)Cc1ccc(OC)c(S(N)(=O)=O)c1.Cl [TAMSULOSIN HYDROCHLORIDE] ?
Outgoing: Compound NOT metabolized

Incoming: Would you kindly share the measured Bacterial Biotransformation for COc1ccc2cc([C@H](C)C(=O)O)ccc2c1 ?
Outgoing: Compound NOT metabolized

More entries:
Incoming: Would you kindly share the measured Bacterial Biotransformation for Nc1nc(NC2CC2)c2ncn([C@H]3C=C[C@@H](CO)C3)c2n1.Nc1nc(NC2CC2)c2ncn([C@H]3C=C[C@@H](CO)C3)c2n1.O=S(=O)(O)O [ABACAVIR SULFATE] ?
Outgoing: Compound metabolized

* * *

measurement_protocol: The drug is tested on WLS-310 corresponding to human gut metagenome with ENA study accession number: PRJEB37062 and ENA sample accession number: ERS12561785 for biotransformation under anaerobic condition. The drug concentrations were measured over 9 timepoints collected between 0 and 24 hours of incubation by liquid-chromatography-coupled mass spectrometry (LC–MS)
protocol_conditions: 2 µM
result_type: Bacterial Biotransformation

Sample records with Bacterial Biotransformation:
Incoming: Would you kindly share the measured Bacterial Biotransformation for O=C1CC2(CCCC2)CC(=O)N1CCCCN1CCN(c2ncccn2)CC1 ?
Outgoing: Compound metabolized

Incoming: Would you kindly share the measured Bacterial Biotransformation for CCN(C(C)=O)c1cccc(-c2ccnc3c(C#N)cnn23)c1 ?
Outgoing: Compound metabolized

Incoming: Would you kindly share the measured Bacterial Biotransformation for CNCC[C@H](Oc1cccc2ccccc12)c1cccs1 ?
Outgoing: Compound metabolized

Incoming: Would you kindly share the measured Bacterial Biotransformation for C[C@]12CCC(=O)C=C1[C@@H]1C[C@@H]1[C@H]1[C@@H]3[C@@H]4C[C@@H]4[C@@]4(CCC(=O)O4)[C@@]3(C)CC[C@@H]12 ?
Outgoing: Compound metabolized

Incoming: Would you kindly share the measured Bacterial Biotransformation for CN(C)CCOC(C)(c1ccccc1)c1ccccn1.O=C(O)CCC(=O)O (stereo not drawn) [DOXYLAMINE SUCCINATE] ?
Outgoing: Compound NOT metabolized

More entries:
Incoming: Would you kindly share the measured Bacterial Biotransformation for CC(N)C12CC3CC(CC(C3)C1)C2 (stereo not drawn) ?
Outgoing: Compound NOT metabolized

Incoming: Would you kindly share the measured Bacterial Biotransformation for CCOC(=O)C1=C(C)NC(C)=C(C(=O)OC)C1c1cccc([N+](=O)[O-])c1 (stereo not drawn) ?
Outgoing: Compound metabolized

Incoming: Would you kindly share the measured Bacterial Biotransformation for C[C@@H](c1ncncc1F)[C@](O)(Cn1cncn1)c1ccc(F)cc1F ?
Outgoing: Compound metabolized

* * *

protocol_conditions: human gut metagenome, 24 h, 2 µM
result_type: Bacterial Biotransformation

Sample records with Bacterial Biotransformation:
Incoming: Would you kindly share the measured Bacterial Biotransformation for CCOc1cc(CC(=O)N[C@@H](CC(C)C)c2ccccc2N2CCCCC2)ccc1C(=O)O [REPAGLINIDE] ?
Outgoing: Compound metabolized

Incoming: Would you kindly share the measured Bacterial Biotransformation for CCN(C)C(=O)Oc1cccc([C@H](C)N(C)C)c1.O=C(O)C(O)C(O)C(=O)O [RIVASTIGMINE TARTRATE] ?
Outgoing: Compound NOT metabolized

Incoming: Would you kindly share the measured Bacterial Biotransformation for O=C1N=C([O-])NC1(c1ccccc1)c1ccccc1.[Na+] [PHENYTOIN SODIUM] ?
Outgoing: Compound metabolized

Incoming: Would you kindly share the measured Bacterial Biotransformation for CCOC(=O)[C@H](CCc1ccccc1)N[C@@H](C)C(=O)N1Cc2ccccc2C[C@H]1C(=O)O ?
Outgoing: Compound metabolized

Incoming: Would you kindly share the measured Bacterial Biotransformation for C[C@@H](c1ncncc1F)[C@](O)(Cn1cncn1)c1ccc(F)cc1F ?
Outgoing: Compound metabolized

More entries:
Incoming: Would you kindly share the measured Bacterial Biotransformation for C=CC[C@@H]1/C=C(\C)C[C@H](C)C[C@H](OC)[C@H]2O[C@@](O)(C(=O)C(=O)N3CCCC[C@H]3C(=O)O[C@H](/C(C)=C/[C@@H]3CC[C@@H](O)[C@H](OC)C3)[C@H](C)[C@@H](O)CC1=O)[C@H](C)C[C@@H]2OC.O ?
Outgoing: Compound metabolized

Incoming: Would you kindly share the measured Bacterial Biotransformation for CC(=O)CCCCn1c(=O)c2c(ncn2C)n(C)c1=O ?
Outgoing: Compound NOT metabolized
